Record form. Attribute: pIC50. Fill in for each entry.
- TGT: human D2R/β-arrestin (Homo sapiens (Human))
- Sequence (P14416 whole entry): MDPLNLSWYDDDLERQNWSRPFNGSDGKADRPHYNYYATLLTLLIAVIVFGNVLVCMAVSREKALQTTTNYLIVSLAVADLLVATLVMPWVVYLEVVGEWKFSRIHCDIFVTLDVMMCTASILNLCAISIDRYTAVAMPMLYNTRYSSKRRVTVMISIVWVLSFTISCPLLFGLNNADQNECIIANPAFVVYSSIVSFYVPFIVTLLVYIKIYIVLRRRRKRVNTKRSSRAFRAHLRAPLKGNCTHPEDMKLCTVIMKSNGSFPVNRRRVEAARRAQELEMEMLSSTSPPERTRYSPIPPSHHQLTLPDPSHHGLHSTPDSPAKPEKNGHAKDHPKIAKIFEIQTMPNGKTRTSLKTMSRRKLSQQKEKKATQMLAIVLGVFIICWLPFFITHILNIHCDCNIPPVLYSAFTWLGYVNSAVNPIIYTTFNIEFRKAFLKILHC
- ASSAY_OVERVIEW: cell-based
- RUN_PARAMETERS: β-arrestin Antagonist, CHO-K1 cells expressing human D2R/β-arrestin; antagonist mode, quinpirole 130 nM
pIC50: −log10 of the molar value.

Examples with answers:
COMPOUND	pIC50
Clc1ccc2c(c1)C[C@@H]1CN(CCOc3ccccc3)C[C@H]1O2	4.52 to 5.00
COc1cccc(OCCN2CCC(C)(Oc3ccc(Cl)cc3)C2)c1 (stereo not drawn)	< 4.52
CC(=O)NC1(C)CCN(C[C@H]2COc3ccc(Br)cc3O2)CC1	> 7.00
O=[N+]([O-])c1ccc(OC2(c3ccccc3)CCN(CCOc3ccccc3)C2)cc1 (stereo not drawn)	5.00 to 6.00
CC1(Oc2ccc(Cl)cc2)CCN(CCOc2ccc(S(C)(=O)=O)cc2)CC1	4.52 to 5.00
CC1(Oc2ccc(Cl)cc2)CCN(CCOc2cccnc2C(F)(F)F)CC1	< 4.52
CC1(O)CCN(CCCOc2ccccc2C(F)(F)F)CC1	6.00 to 7.00
CC1(Oc2ccc(N)cc2)CCN(CCOc2ccccc2)C1 (stereo not drawn)	< 4.52

Please report pIC50 for every entry that follows.
1. CC1(Oc2ccc(Cl)cc2)CCN(CCOc2ccc3ncoc3c2)C1 (stereo not drawn)
2. CC1(C(=O)NC2CC2)CCN(CC2COc3ccccc3O2)CC1 (single isomer, unassigned) [Compound 203b]

// result
5.00 to 6.00
4.52 to 5.00

Please report pIC50 for every entry that follows.
1. CNC(=O)C1(C)CCN(CC2COc3ccccc3O2)CC1 (single isomer, unassigned) [Compound 202b]
2. CC1(C(=O)Nc2ccccc2)CCN(CC2COc3ccccc3O2)CC1 (stereo not drawn) [Compound 204]
3. CC1(OCc2ccccc2)CCN(CCOc2ccccc2C(F)(F)F)CC1
4. CC1(Oc2ccc(Cl)cc2)CCN(CCOc2ccc3c(c2)NC(=O)CC3)CC1
5. CC1(C(=O)NC2CC2)CCN(CC2COc3ccccc3O2)CC1 (single isomer, unassigned) [Compound 203a]
6. COc1ccccc1OCCN1CCC(C)(Oc2ccc(Cl)cc2)CC1

// result
["6.00 to 7.00", "5.00 to 6.00", "> 7.00", "5.00 to 6.00", "6.00 to 7.00", "6.00 to 7.00"]

Please report pIC50 for every entry that follows.
1. CC1(Oc2ccc(Cl)cc2)CCN(CCOC2CCCCC2)C1 (stereo not drawn)
2. CC1(Oc2ccc(Cl)cc2)CCN(CCn2c(=O)ccc3cccc(C(F)(F)F)c32)CC1

// result
1: 5.00 to 6.00; 2: < 4.52
